# Target Under Test: T1, human CD8 alpha (CD8A) on primary human CD8+ T cells (human, UniProt P01732 22-235)
# T1 construct: whole, on cells; also called hCD8A
# T1 sequence (P01732 22-235): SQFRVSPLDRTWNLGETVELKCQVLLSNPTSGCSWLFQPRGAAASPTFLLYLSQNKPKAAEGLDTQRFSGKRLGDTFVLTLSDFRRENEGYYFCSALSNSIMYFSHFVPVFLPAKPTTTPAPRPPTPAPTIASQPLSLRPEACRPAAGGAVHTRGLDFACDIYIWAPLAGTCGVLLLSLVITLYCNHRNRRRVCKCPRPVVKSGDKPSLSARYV
# Assay Name: flow cytometry, human CD8+ T cells
# Experimental: Binding of the 190 ELISA hits to human and cynomologous monkey primary CD8 T cells was assessed by flow cytometry. The FN3 domain molecules were diluted to 2 μM and 0.2 μM in PBS and incubated with human or cynomologous monkey CD8+ T cells in 96-well format. […] Cells were gating on live cells and median fluorescence intensity of the bound Centyrins (PE channel) was calculated using Cytobank software.
# maps each entry to its Human T-cell Binding 0.2 uM (MFI)

Binder	Unit Abbreviation	Human T-cell Binding 0.2 uM (MFI)
P283HR7P1368_H8 (designed binder, FN3 domain) LPAPKNLVVSRVTEDSARLSWTAPDAAFDSFGITYLDPRNGEAISLNVPGSERSYDLTGLKPGTEYWVVIIGVKGGINSYPLGASFTT	MFI	1610
P283FR9P1366_H9 (designed binder, FN3 domain) LPAPKNLVVSRVTEDSARLSWTAPDAAFDSFEIAYPEWPVNGEAIVLTVPGSERSYDLTGLKPGTEYWVVIWGVKGGVNSYPLSAIFTT	MFI	693
P283GR7P1367_H9 (designed binder, FN3 domain) LPAPKNLVVSRVTEDSARLSWTAPDAAFDSFDIAYPEWPTDGEAIVLTVPGSERSYDLTGLKPGTEYFVVIYGVKGGGRSAPLSAIFTT	MFI	434
P283HR7P1368_D1 (designed binder, FN3 domain) LPAPKNLVVSRVTEDSARLSWTAPDAAFDSFGISYYEWAPNGEAIQLSVPGSERSYDLTGLKPGTEYHVVIIGVKGGEPSHPLGAPFTT	MFI	2310
P283FR9P1366_G5 (designed binder, FN3 domain) LPAPKNLVVSRVTEDSARLSWTAPDAAFDSFQIAYPEYPALGEAIVLTVPGSERSYDLTGLKPGTEYFVIIIGVKGGDESFPLSAIFTT	MFI	261
P283ER9P1365_E2 (designed binder, FN3 domain) LPAPKNLVVSRVTEDSARLSWTAPDAAFDSFYIPYRESEFRGEAIALPVPGSERSYDLTGLKPGTKYRVIIIGVKGGEFSQPLAAIFTT	MFI	2870
P283BR9P1363_F2 (designed binder, FN3 domain) LPAPKNLVVSRVTEDSARLSWYRPDNRAGAFDSFLIQYQESEKVGEAIVLTVPGSERSYDLTGLKPGTEYTVSIYGVDVKYDIDSRPISSNPLSAIFTT	MFI	3270
P283DR9P1364_B4 (designed binder, FN3 domain) LPAPKNLVVSRVTEDSARLSWTAPDAAFDSFAISYPEWPPPGEAIVLTVPGSERSYDLTGLKPGTEYWVIILGVKGGDQSWPLSAIFTT	MFI	6060
P283DR9P1364_G9 (designed binder, FN3 domain) LPAPKNLVVSRVTEDSARLSWTAPDAAFDSFGIWYPEWPVGGEAIVLTVPGSERSYDLTGLKPGTEYWVNISGVKGGEYSFPLSAIFTT	MFI	401
